Answer each item with its documented inhibition at 1 µM.
measured-target: mTLR9 (Mus musculus, UniProt Q9EQU3)
Construct: Splenocytes isolated from male C57/BL6 mice; from tissue; host or cells: splenocytes from the spleen of male C57BL/6 mice
Sequence (Q9EQU3 26-1032): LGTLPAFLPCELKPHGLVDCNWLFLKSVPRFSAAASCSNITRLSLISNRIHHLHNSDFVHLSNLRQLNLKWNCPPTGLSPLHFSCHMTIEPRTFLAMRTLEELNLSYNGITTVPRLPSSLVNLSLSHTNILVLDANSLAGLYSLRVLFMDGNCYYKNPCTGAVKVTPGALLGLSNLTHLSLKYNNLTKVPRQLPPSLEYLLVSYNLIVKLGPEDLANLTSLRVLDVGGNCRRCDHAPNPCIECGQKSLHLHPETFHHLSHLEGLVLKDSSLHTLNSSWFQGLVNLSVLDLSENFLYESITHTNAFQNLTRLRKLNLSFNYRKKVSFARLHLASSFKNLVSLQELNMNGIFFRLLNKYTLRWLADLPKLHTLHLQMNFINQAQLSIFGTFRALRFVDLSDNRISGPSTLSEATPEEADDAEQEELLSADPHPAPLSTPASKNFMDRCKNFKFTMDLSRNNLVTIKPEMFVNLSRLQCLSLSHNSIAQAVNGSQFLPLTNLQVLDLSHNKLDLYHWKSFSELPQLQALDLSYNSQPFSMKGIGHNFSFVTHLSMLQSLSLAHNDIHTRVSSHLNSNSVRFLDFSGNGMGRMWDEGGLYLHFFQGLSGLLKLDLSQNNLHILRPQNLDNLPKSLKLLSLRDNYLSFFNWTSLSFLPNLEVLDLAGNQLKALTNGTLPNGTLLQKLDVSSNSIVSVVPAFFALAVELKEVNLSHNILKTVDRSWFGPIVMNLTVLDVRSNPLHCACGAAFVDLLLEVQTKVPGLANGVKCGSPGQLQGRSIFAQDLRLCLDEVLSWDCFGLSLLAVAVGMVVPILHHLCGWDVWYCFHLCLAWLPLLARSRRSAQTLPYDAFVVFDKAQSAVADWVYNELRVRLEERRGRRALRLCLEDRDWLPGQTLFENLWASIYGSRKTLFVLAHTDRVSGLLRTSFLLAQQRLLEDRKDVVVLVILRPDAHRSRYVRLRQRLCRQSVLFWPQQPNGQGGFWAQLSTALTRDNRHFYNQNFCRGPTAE
experiment: mTLR9 antagonism (IL-6 and TNF-α release assay) in mouse splenocytes, CpG ODN-2006 stimulated
Format: cell-based
condition-summary: 1 μM; TNF-α release, mouse splenocytes; read-out: mTLR9 inhibitory activity (% at 1 μM), TNF-α
Numbers only, in %.

Sample records with inhibition at 1 µM:
inhibition at 1 µM reading for Cc1cc2c(cc(CCCN3CCOCC3)n2C)c(-c2ccc(N3CCN(C(C)C)CC3)cc2)n1 [Example C6] : 100

inhibition at 1 µM for CC(C)N1CCC(c2ccc(-c3nccc4[nH]c(CN5CCOCC5)cc34)cn2)CC1 [Example A64] is 0

Kindly note the recorded inhibition at 1 µM for Cc1cc2c(cc(CCN3CCOCC3)n2C)c(-c2cccc(N3CCN(C(C)C)CC3)c2)n1 [Example B21] , which is 100

Next up:
What the record says about Cc1nc(-c2ccc(N3CCN(C(C)C)CC3)cc2)c2cc(CN3CCOCC3)[nH]c2c1C [Example A36] : inhibition at 1 µM is 100
